This collection of values is drawn from patent US8455475B2.

assay target: human B1R (bradykinin receptor 1) (Homo sapiens)
Construct: expressed in transfected cells; host or cells: CHO K1 cells
Sequence (P46663 1-353): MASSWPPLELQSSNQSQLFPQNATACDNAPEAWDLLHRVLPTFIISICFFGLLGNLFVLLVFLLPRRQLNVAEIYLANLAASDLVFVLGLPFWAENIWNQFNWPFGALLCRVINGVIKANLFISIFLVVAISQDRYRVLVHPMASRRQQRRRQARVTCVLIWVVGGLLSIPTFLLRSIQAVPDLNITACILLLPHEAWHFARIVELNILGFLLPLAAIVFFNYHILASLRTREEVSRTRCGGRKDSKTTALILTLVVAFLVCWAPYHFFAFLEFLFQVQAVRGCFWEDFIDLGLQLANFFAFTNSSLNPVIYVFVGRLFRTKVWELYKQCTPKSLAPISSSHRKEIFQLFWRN
experimental protocol: FLIPR Ca2+ assay (Fluo-4) on CHO K1 cells stably transfected with the human B1R gene (hB1R cells): % inhibition at 10 μM / IC50, agonist Lys-Des-Arg9-bradykinin
Assay type: cell-based
measurement setup: CHO-K1, human B1R
I'd be grateful if you could share measured inhibition at 10 µM for these entries.
One number for each entry, in %.

Reference set (3 entries):
>  <molecule>
O=C(c1cccc2c1CC[C@H]2NS(=O)(=O)c1ccccc1Cl)N1CCC2(CCN(c3ccncc3)CC2)C1

>  <assay target>
human B1R (bradykinin receptor 1) (Homo sapiens)

>  <measure unit>
%

>  <inhibition at 10 µM>
21

$$$$
>  <molecule>
O=C(NC1CCc2ccc(C(=O)N3CCC4(CCN(c5ccncc5)CC4)C3)cc21)c1ccccc1Cl (stereo not shown)

>  <assay target>
human B1R (bradykinin receptor 1) (Homo sapiens)

>  <measure unit>
%

>  <inhibition at 10 µM>
100

$$$$
>  <molecule>
Cn1cncc1CN1CCC2(CC1)CCN(C(=O)c1ccc3c(c1)C(NC(=O)c1ccccc1Cl)CC3)CC2 (stereo not shown)

>  <assay target>
human B1R (bradykinin receptor 1) (Homo sapiens)

>  <measure unit>
%

>  <inhibition at 10 µM>
25

$$$$

We next turn to a different molecule, shown below.
Form: molecule = O=C(N[C@@H]1CCCc2ccc(C(=O)N3CCCC4(CCCN(c5ccncc5)C4)C3)cc21)c1ccccc1Cl (stereo partly shown) ; inhibition at 10 µM = 98

###

For each of the compounds below, state its inhibition at 10 µM.
assay target: rat B1R (bradykinin receptor 1) (Rattus norvegicus)
Construct: expressed in transfected cells; host or cells: CHO K1 cells
Sequence (P97583 whole entry): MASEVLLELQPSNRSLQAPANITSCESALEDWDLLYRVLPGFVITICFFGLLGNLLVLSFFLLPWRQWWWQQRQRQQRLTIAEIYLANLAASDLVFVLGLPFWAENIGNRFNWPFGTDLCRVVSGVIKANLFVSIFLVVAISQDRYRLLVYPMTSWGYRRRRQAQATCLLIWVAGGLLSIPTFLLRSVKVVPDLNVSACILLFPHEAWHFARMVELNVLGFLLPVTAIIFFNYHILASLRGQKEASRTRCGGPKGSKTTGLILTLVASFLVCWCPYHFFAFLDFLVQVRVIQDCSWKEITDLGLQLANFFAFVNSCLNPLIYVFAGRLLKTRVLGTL
experimental protocol: FLIPR Ca2+ assay (Fluo-4) on CHO K1 cells stably transfected with the B1R gene of the rat (rB1R cells): % inhibition at 10 μM / IC50, agonist Des-Arg9-bradykinin
Format: cell-based
measurement setup: CHO-K1, rat B1R
Answers are plain numbers, in %.

Before answering, review these 6 worked examples.
>  <compound>
CN(C(=O)c1ccccc1Cl)C1CCc2ccc(C(=O)N3CCC4(CCN(C(=O)CC(C)(C)C)CC4)C3)cc21 (stereo not shown) [IND_CC-590]

>  <property>
inhibition at 10 µM

>  <numeric readout>
86

$$$$
>  <compound>
Cc1cccc(Cl)c1C(=O)NC1CCc2ccc(C(=O)N3CCC4(CCN(Cc5cnc(N(C)C)nc5)CC4)C3)cc21 (stereo not shown) [IND_CC-763]

>  <property>
inhibition at 10 µM

>  <numeric readout>
74

$$$$
>  <compound>
Cc1ccccc1CC(=O)N[C@@H]1CCc2ccc(C(=O)N3CCC4(CCN(c5ccncc5)CC4)C3)cc21 [Example H-154]

>  <property>
inhibition at 10 µM

>  <numeric readout>
105

$$$$
>  <compound>
O=C(NC1CCc2ccc(C(=O)N3CCC4(CCN(CC5CCCCC5)CC4)CC3)cc21)c1cc(C(F)(F)F)ccc1Cl (stereo not shown) [IND_CC-700]

>  <property>
inhibition at 10 µM

>  <numeric readout>
64

$$$$
>  <compound>
O=C(NC1CCc2ccc(C(=O)N3CCC4(CCN(Cc5ccc6nccnc6c5)CC4)C3)cc21)c1c(F)cccc1Cl (stereo not shown) [IND_CC-775]

>  <property>
inhibition at 10 µM

>  <numeric readout>
98

$$$$
>  <compound>
O=C(NC1CCc2ccc(C(=O)N3CCC4(CC3)CCN(S(=O)(=O)c3ccc(Cl)s3)CC4)cc21)c1ccccc1Cl (stereo not shown) [IND_CC-608]

>  <property>
inhibition at 10 µM

>  <numeric readout>
102

$$$$

For record CC1(C)Cc2ccc(C(=O)N3CCC4(CC3)CCN(c3ccncc3)CC4)cc2C1NC(=O)c1cc(F)c(F)cc1Cl (stereo not shown) [IND_CC-231] the listed inhibition at 10 µM is 102
